- measurement-target: Protein deacetylase HDAC6 (Homo sapiens)
- method-notes: Inhibition of full length human recombinant N-terminal GST-tagged HDAC6 expressed in Sf9 cells using RHKK(Ac) as substrate after 90 mins by fluorimetric method
measured-quantity: IC50 (nM)

Q. Entry CN1CCc2c(c3ccccc3n2S(=O)(=O)c2cccc(/C=C/C(=O)NO)c2)C1 has what IC50?
A. 189

Q. One more compound: Cc1c(CN(C)C)c2ccccc2n1S(=O)(=O)c1cccc(/C=C/C(=O)NO)c1
A. 84.9

Q. Same again, this time with CN(C)C(=O)c1cn(Cc2ccc(/C=C/C(=O)NO)cc2)c2ccccc12
A. 8.5

a. CN(C)C(=O)c1cn(S(=O)(=O)c2ccc(/C=C/C(=O)NO)cc2)c2ccccc12
b. Cc1c(CN(C)C)c2ccccc2n1S(=O)(=O)c1ccc(/C=C/C(=O)NO)cc1
c. CN(C)Cc1cn(S(=O)(=O)c2ccc(/C=C/C(=O)NO)cc2)c2ccccc12
Q. Ascending by IC50, please. Lab note: record answer as labels in requested order.
A. a, c, b
(a: 10.8 nM, c: 16.7 nM, b: 63 nM)

###

- Species on record: Homo sapiens
- method-notes: Selectivity ratio of IC50 for full length human recombinant C-terminal FLAG-His-tagged HDAC1 to IC50 for full length human recombinant N-terminal GST-tagged HDAC6
measured-quantity: Ratio IC50

Q. Look up Ratio IC50: CN(C)C(=O)c1cn(Cc2ccc(C(=O)NO)cc2)c2ccccc12
A. 714

Q. Lookup CN(C)C(=O)c1cn(Cc2ccc(/C=C/C(=O)NO)cc2)c2ccccc12
A. 73

P. CN(C)Cc1cn(S(=O)(=O)c2ccc(/C=C/C(=O)NO)cc2)c2ccccc12
Q. Cc1c(CN(C)C)c2ccccc2n1S(=O)(=O)c1ccc(/C=C/C(=O)NO)cc1
Q. // compare measured Ratio IC50, left P , right Q , return larger Answer format: the label of the selected item.
A. P
(P: 115, Q: 63)

###

- measurement-target: Histone deacetylase 1 (Homo sapiens, UniProt Q13547)
- Sequence (Q13547 whole entry): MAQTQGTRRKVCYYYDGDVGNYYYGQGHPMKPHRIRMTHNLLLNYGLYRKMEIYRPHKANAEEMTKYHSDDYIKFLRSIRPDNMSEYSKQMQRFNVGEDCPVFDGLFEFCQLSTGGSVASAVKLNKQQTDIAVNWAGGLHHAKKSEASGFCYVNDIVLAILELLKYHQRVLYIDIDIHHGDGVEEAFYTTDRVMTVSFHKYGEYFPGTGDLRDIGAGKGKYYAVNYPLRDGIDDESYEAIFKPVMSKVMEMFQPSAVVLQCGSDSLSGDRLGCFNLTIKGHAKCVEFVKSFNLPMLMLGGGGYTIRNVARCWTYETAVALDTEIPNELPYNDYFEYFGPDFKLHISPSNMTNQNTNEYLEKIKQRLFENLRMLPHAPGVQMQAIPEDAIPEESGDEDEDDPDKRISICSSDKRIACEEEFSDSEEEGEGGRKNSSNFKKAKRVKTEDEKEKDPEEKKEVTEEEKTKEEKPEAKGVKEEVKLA
- method-notes: Inhibition of full length human recombinant C-terminal FLAG-His-tagged HDAC1 expressed in Sf21 cells using RHKK(Ac) as substrate after 60 mins by fluorimetric method
pIC50: −log10 of the molar value.
measured-quantity: pIC50

Q. Entry CN1CCc2c(c3ccccc3n2S(=O)(=O)c2cccc(/C=C/C(=O)NO)c2)C1 has what pIC50?
A. 5.57

a. Cc1c(CN(C)C)c2ccccc2n1S(=O)(=O)c1ccc(/C=C/C(=O)NO)cc1
b. CN1CCc2c(c3ccccc3n2Cc2ccc(/C=C/C(=O)NO)cc2)C1
c. CN(C)Cc1cn(Cc2ccc(C(=O)NO)cc2)c2ccccc12
Q. # desc sort on pIC50 across 3 compounds When ranking, write the labels in the order the request describes.
A. b, a, c
(b: 5.80, a: 5.40, c: 5.15)

###

- Species: Homo sapiens
- method-notes: Selectivity ratio of IC50 for full length human recombinant C-terminal FLAG-His-tagged HDAC1 to IC50 for full length human recombinant N-terminal GST-tagged HDAC6
measured-quantity: Ratio IC50

Q. Quick one: Ratio IC50 of CN(C)C(=O)c1cn(S(=O)(=O)c2cccc(/C=C/C(=O)NO)c2)c2ccccc12 ?
A. 34

I. CN(C)Cc1cn(S(=O)(=O)c2cccc(/C=C/C(=O)NO)c2)c2ccccc12
II. CN1CCc2c(c3ccccc3n2Cc2ccc(/C=C/C(=O)NO)cc2)C1
Q. Min Ratio IC50? I | II The response must carry the label of the picked entry.
A. I

###

- Organism: Homo sapiens
- method-notes: Selectivity ratio of IC50 for full length human recombinant C-terminal GST-tagged HDAC2 to IC50 for full length human recombinant N-terminal GST-tagged HDAC6
measured-quantity: Ratio IC50

Q. Request the reported Ratio IC50 associated with Cc1c(CN(C)C)c2ccccc2n1Cc1ccc(/C=C/C(=O)NO)cc1
A. 24

P. CN(C)Cc1cn(S(=O)(=O)c2cccc(/C=C/C(=O)NO)c2)c2ccccc12
Q. CN(C)Cc1cn(Cc2ccc(C(=O)NO)cc2)c2ccccc12
Q. Just curious, which one has the larger Ratio IC50 reading, P or Q ? Please respond with the label that marks your chosen entry.
A. Q
(Q: 562, P: 18)

###

IC50: recorded values
- measurement-target: Histone deacetylase 1 (Homo sapiens)
- method-notes: Inhibition of full length human recombinant C-terminal FLAG-His-tagged HDAC1 expressed in Sf21 cells using RHKK(Ac) as substrate after 60 mins by fluorimetric method
Report the value in nM with no unit label.

Example entries and their recorded answers appear below.
Q. What measured IC50 goes with Cc1c(CN(C)C)c2ccccc2n1S(=O)(=O)c1cccc(/C=C/C(=O)NO)c1 ?
A. 1850

Q. Also, CN(C)C(=O)c1cn(Cc2ccc(/C=C/C(=O)NO)cc2)c2ccccc12 please.
A. 627

Here is the next item to consider.
Q. Consider the molecule CN(C)C(=O)c1cn(Cc2ccc(C(=O)NO)cc2)c2ccccc12 and give its measured IC50.
A. 5720

###

- measurement-target: Histone deacetylase 2 (Homo sapiens, UniProt Q92769)
- Sequence (Q92769 whole entry): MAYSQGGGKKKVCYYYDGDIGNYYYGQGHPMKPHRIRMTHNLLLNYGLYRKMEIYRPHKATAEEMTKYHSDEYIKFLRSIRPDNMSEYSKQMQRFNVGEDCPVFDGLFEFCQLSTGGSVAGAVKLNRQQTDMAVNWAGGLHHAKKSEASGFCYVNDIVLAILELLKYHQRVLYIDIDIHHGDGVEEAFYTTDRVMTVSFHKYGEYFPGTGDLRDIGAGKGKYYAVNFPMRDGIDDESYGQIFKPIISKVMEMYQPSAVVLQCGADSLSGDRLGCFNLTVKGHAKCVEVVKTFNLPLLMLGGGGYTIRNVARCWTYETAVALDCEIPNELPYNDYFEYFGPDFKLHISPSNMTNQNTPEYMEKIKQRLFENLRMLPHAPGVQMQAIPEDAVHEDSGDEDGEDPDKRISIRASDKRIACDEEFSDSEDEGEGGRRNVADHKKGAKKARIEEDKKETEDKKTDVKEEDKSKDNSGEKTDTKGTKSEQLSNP
- method-notes: Inhibition of full length human recombinant C-terminal GST-tagged HDAC2 expressed in insect cells using RHKK(Ac) as substrate after 60 mins by fluorimetric method
pIC50: −log10 of the molar value.
measured-quantity: pIC50

Q. What measured pIC50 is associated with CN(C)C(=O)c1cn(Cc2ccc(C(=O)NO)cc2)c2ccccc12 on Histone deacetylase 2 (Homo sapiens, UniProt Q92769)?
A. < 5.00

Q. Try this molecule too: CN(C)C(=O)c1cn(S(=O)(=O)c2cccc(/C=C/C(=O)NO)c2)c2ccccc12
A. < 5.00

Read the next record carefully.
Q. Please tell me: pIC50 of Cc1c(CN(C)C)c2ccccc2n1Cc1ccc(C(=O)NO)cc1 , system Histone deacetylase 2 (Homo sapiens, UniProt Q92769)?
A. < 5.00

###

- measurement-target: Protein deacetylase HDAC6 (Homo sapiens, UniProt Q9UBN7)
- Sequence (Q9UBN7 whole entry): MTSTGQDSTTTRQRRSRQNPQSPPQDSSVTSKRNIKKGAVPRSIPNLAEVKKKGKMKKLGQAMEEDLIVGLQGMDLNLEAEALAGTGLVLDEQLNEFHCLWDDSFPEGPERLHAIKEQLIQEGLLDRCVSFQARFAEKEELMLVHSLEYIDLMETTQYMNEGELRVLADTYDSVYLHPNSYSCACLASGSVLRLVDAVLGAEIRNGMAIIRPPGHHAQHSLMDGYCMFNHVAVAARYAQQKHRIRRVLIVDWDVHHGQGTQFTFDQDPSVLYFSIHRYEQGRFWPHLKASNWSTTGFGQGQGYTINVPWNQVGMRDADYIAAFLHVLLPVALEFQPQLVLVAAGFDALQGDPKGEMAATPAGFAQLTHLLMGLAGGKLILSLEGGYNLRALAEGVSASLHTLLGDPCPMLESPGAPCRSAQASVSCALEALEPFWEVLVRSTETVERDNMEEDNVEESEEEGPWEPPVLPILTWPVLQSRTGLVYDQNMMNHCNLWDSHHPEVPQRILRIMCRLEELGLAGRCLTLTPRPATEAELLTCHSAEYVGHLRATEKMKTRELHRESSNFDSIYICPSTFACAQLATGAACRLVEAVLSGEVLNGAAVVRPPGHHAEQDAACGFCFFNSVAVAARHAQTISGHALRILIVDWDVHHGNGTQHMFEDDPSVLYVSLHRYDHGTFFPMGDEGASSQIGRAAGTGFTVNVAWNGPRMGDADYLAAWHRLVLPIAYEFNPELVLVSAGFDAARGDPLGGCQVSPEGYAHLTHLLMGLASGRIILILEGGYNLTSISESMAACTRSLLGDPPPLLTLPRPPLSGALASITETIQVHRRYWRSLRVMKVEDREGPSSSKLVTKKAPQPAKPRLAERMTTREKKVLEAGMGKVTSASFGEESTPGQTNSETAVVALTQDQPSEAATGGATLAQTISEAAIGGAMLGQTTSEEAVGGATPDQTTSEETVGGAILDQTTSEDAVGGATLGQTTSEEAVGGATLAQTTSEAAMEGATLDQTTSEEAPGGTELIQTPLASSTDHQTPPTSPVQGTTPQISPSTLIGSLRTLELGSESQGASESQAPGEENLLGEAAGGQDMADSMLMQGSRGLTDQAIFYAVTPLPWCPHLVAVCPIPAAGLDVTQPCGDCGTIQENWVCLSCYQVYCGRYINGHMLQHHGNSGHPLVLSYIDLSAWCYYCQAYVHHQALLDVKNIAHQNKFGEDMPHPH
- method-notes: Inhibition of full length human recombinant N-terminal GST-tagged HDAC6 expressed in Sf9 cells using RHKK(Ac) as substrate after 90 mins by fluorimetric method
pIC50: −log10 of the molar value.
measured-quantity: pIC50

Q. What value of pIC50 has been reported for the following compound? CN1CCc2c(c3ccccc3n2Cc2ccc(/C=C/C(=O)NO)cc2)C1
A. 7.38

A. Cc1c(CN(C)C)c2ccccc2n1Cc1ccc(C(=O)NO)cc1
B. CN(C)Cc1cn(S(=O)(=O)c2cccc(/C=C/C(=O)NO)c2)c2ccccc12
C. CN(C)Cc1cn(Cc2ccc(/C=C/C(=O)NO)cc2)c2ccccc12
D. CN(C)C(=O)c1cn(S(=O)(=O)c2cccc(/C=C/C(=O)NO)c2)c2ccccc12
Q. hey, can you rank those compounds up there by pIC50? biggest number first please Write out the labels following the order that was asked for.
A. A, C, B, D

1. Cc1c(CN(C)C)c2ccccc2n1Cc1ccc(/C=C/C(=O)NO)cc1
2. CN(C)Cc1cn(Cc2ccc(C(=O)NO)cc2)c2ccccc12
Q. Of the two listed items, 1 and 2 , which carries the larger pIC50 figure? I would appreciate it if you answered with the label of your choice.
A. 2
(2: 7.66, 1: 7.02)

###

- Species on record: Homo sapiens
- method-notes: Selectivity ratio of IC50 for full length human recombinant C-terminal FLAG-His-tagged HDAC1 to IC50 for full length human recombinant N-terminal GST-tagged HDAC6
measured-quantity: Ratio IC50

Consider the reported Ratio IC50 for these compounds:
Q. Ratio IC50 lookup needed for CN(C)Cc1cn(Cc2ccc(/C=C/C(=O)NO)cc2)c2ccccc12 , thanks.
A. 52

Q. And for Cc1c(CN(C)C)c2ccccc2n1Cc1ccc(/C=C/C(=O)NO)cc1 ?
A. 22

Q. What would you report for CN(C)Cc1cn(Cc2ccc(C(=O)NO)cc2)c2ccccc12 ?
A. 328

Q. Query CN(C)C(=O)c1cn(S(=O)(=O)c2ccc(/C=C/C(=O)NO)cc2)c2ccccc12 next
A. 186

I. CN1CCc2c(c3ccccc3n2S(=O)(=O)c2cccc(/C=C/C(=O)NO)c2)C1
II. Cc1c(CN(C)C)c2ccccc2n1Cc1ccc(C(=O)NO)cc1
III. Cc1c(CN(C)C)c2ccccc2n1S(=O)(=O)c1cccc(/C=C/C(=O)NO)c1
Q. Task field, ranking: reported Ratio IC50, descending order. # output: labels, in the requested order
A. II, III, I

###

This section presents compounds with their documented Ratio IC50 values.
- Species on record: Homo sapiens
- method-notes: Selectivity ratio of IC50 for full length human recombinant C-terminal GST-tagged HDAC2 to IC50 for full length human recombinant N-terminal GST-tagged HDAC6

# example entries with known answers
Q. Entry under review: CN(C)C(=O)c1cn(Cc2ccc(C(=O)NO)cc2)c2ccccc12 . Reported Ratio IC50?
A. > 1250

Q. Here is the next compound: Cc1c(CN(C)C)c2ccccc2n1Cc1ccc(C(=O)NO)cc1
A. > 1620

Could you now look at the following compound, please?
Q. Fill blank: measured Ratio IC50 of the compound CN(C)C(=O)c1cn(S(=O)(=O)c2cccc(/C=C/C(=O)NO)c2)c2ccccc12 is ____.
A. > 49
